tested-on: T1, human CD47 (full length) expressed on cells (human, UniProt Q08722 19-323)
T1 construct: whole, on cells; also called human CD47/CHO cells; CHO/CD47 cells
protocol-description: FACS ligand blocking on CD47-CHO cells; blocked ligand FITC human SIRPa huFc at 5 ug/ml
outcome-measure: IC50 (µg/mL)
Report the value in µg/mL with no unit label.

Data request: What measured IC50 goes with HuD36S4 H3/L2 humanized anti-CD47 antibody (antibody, V domains shown) VH: EVQLVESGGGLVQPGGSLRLSCAASGFTFSRYWMNWVRQAPGKGLEWVAQIRLKSDNYETHYAESVKGRFTISRDDSKSSLYLQMNSLKTEDTAVYYCIEEGGYYVPFAYWGQGTLVTVSS VL: DIVMTQTPLSLPVTPGEPASISCKSSQSLFKSRTRKNYLAWYLQKPGQSPQLLIYWASIRESGVPDRFSGSGSGTDFTLKISRVEAEDVGVYYCKQSYYLLTFGGGTKVEIK ?
Data returned: 2.5
